system.name: T1, BCMA (Homo sapiens (Human), UniProt Q02223 1-54, limits assumed)
T1 sequence: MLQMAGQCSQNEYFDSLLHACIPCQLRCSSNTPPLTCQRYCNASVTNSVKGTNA
procedure.details: ELISA, format not described
Design: unit not given here
The entries below come with measured ELISA_avg values attached.
Please respond with just the number, no unit label.

Worked set:
Task: Which ELISA_avg reading was recorded for the binder D-domain SEQ ID NO: 308 (designed binder) MGSWVYFKYGLAVIKEKLEALGGSEAELADFETWIAEFEFGLQQYKGKGNPEVEALRKEAAAIRDELQAYRHN ?
Output: 17.6

Task: Which ELISA_avg reading was recorded for the binder D-domain SEQ ID NO: 184 (designed binder) MGSWSEFNDRLDAIRWRLDALGGSEAELAAFEKEIAAFESELQAYKGKGNPEVEWLRQVAATIRYRLQAYRHN ?
Output: 13.6

Task: Which ELISA_avg reading was recorded for the binder D-domain SEQ ID NO: 146 (designed binder) MGSWGEFNLRLVAIHVRLWALGGSEAELAAFEKEIAAFESELQAYKGKGNPEVEFLRSQAANIRAQLQAYRHN ?
Output: 12.8

Task: Which ELISA_avg reading was recorded for the binder D-domain SEQ ID NO: 109 (designed binder) MGSWYEFQNRLGAINRRLNALGGSEAELAAFEKEIAAFESELQAYKGKGNPEVEELRFEAAIIRVMLQAYRHN ?
Output: 4.68

Continue with the next binder.
Task: Which ELISA_avg reading was recorded for the binder D-domain SEQ ID NO: 69 (designed binder) MGSWSEFIDRLDAITYRLFALGGSEAELAAFEKEIAAFESELQAYKGKGNPEVENLRWYAGVIREQLQAYRHN ?
Output: 10.2
